protocol text: Pharmacokinetics in Sprague Dawley rats (plasma and brain concentrations, PK parameters)
Format: in vivo
test context: Sprague-Dawley, rat, plasma, iv, 3 mg/kg, Sprague Dawley rat, iv 3 mg/kg, Rat 3; read-out: MRTInf_obs Rat 3
reported endpoint: MRT inf (h)

O=C1CCC(N2C(=O)c3cccc(NCCOCCOCCNCc4ccc(-n5cc(NC(=O)c6coc(-c7ccnc(NCC8CC8)c7)n6)c(C(F)F)n5)cc4)c3C2=O)C(=O)N1 (stereo not shown) | 2.92

====

// reported half-life per item
protocol text: Pharmacokinetics in CD-1 mice (plasma concentrations, PK parameters)
Assay type: in vivo
test context: CD-1, mouse, plasma, sc, 30 mg/kg, mouse (CD1) sc 30 mg/kg; individual Mouse 7-9
reported endpoint: half-life (h)

O=C1CCC(N2C(=O)c3cccc(NCCOCCOCCNCc4ccc(-n5cc(NC(=O)c6coc(-c7ccnc(NCC8CC8)c7)n6)c(C(F)F)n5)cc4)c3C2=O)C(=O)N1 (centres unmarked) | 4.34
NC(=O)c1nn(-c2ccc(C(=O)NCCCCCNCCNc3cccc4c3C(=O)N(C3CCC(=O)NC3=O)C4=O)cc2)cc1NC(=O)c1coc(-c2ccnc(NCC(F)(F)F)c2)n1 (centres unmarked) | 8.79

====

tgt: IRAK4 (Homo sapiens)
Sequence (Q9NWZ3 1-460): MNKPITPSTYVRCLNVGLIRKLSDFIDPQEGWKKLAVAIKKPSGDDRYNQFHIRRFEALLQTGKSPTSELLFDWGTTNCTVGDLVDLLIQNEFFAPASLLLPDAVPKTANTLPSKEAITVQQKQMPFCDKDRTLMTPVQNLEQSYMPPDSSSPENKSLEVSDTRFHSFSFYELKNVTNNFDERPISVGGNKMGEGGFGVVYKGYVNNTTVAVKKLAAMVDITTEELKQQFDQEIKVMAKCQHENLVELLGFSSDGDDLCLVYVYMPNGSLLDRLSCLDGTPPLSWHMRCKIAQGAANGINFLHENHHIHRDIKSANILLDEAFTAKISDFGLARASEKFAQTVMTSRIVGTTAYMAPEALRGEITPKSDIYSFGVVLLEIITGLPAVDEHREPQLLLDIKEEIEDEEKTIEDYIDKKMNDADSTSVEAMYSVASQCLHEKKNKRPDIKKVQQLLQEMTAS
protocol text: OCI-LY-10 degradation assay (western blot, % IRAK4 degraded after 4 hours)
Format: cell-based
Design: endogenous in cells; host or cells: OCI-LY10
test context: OCI-LY10 cells, 4 hours, 1 uM compound
reported endpoint: OCI-LY10 % IRAK4 Degradation (1 uM)

NC(=O)c1nn(CCCCCCOCCOCCNc2cccc3c2C(=O)N(C2CCC(=O)NC2=O)C3=O)cc1NC(=O)c1coc(-c2ccnc(NCC3CC3)c2)n1 (stereo not shown) | C (<20% degradation)
NC(=O)c1nn(Cc2cn(CCOCCOCCNc3cccc4c3C(=O)N(C3CCC(=O)NC3=O)C4=O)nn2)cc1NC(=O)c1coc(-c2ccnc(NCC3CC3)c2)n1 (stereo not shown) | C (<20% degradation)
CC(=O)O[C@@H]1C[C@@H](C(=O)NCc2ccc(-n3cc(NC(=O)c4coc(-c5ccnc(NCC6CC6)c5)n4)c(C(F)F)n3)cc2)N(C(=O)COCCOCCOCCNc2cccc3c2C(=O)N(C2CCC(=O)NC2=O)C3=O)C1 (stereo partly shown) | A (>50% degradation)
O=C1CCC(N2C(=O)c3ccc(CCCCCN4CCC(n5cc(NC(=O)c6coc(-c7ccnc(NCC8CC8)c7)n6)c(C(F)F)n5)CC4)cc3C2=O)C(=O)N1 (stereo not shown) | C (<20% degradation)
CN(CCOCCOCCCc1ccc2c(c1)C(=O)N(C1CCC(=O)NC1=O)C2=O)Cc1ccc(-n2cc(NC(=O)c3coc(-c4ccnc(NCC5CC5)c4)n3)c(C(F)F)n2)cc1 (stereo not shown) | A (>50% degradation)
O=C1CCC(N2C(=O)c3cccc(NCCOCCN4CCN(CCOCCNCc5ccc(-n6cc(NC(=O)c7coc(-c8ccnc(NCC9CC9)c8)n7)c(C(F)F)n6)cc5)CC4)c3C2=O)C(=O)N1 (stereo not shown) | A (>50% degradation)
O=C1CCC(N2C(=O)c3ccc(NCc4cn(CCOCCOCCNCc5ccc(-n6cc(NC(=O)c7coc(-c8ccnc(NCC9CC9)c8)n7)c(C(F)F)n6)cc5)nn4)cc3C2=O)C(=O)N1 (stereo not shown) | A (>50% degradation)
O=C1CCC(N2C(=O)c3ccc(CCCN4CCC(n5cc(NC(=O)c6coc(-c7ccnc(NCC8CC8)c7)n6)c(C(F)F)n5)CC4)cc3C2=O)C(=O)N1 (stereo not shown) | C (<20% degradation)
CN(CCOCCOCCCc1ccc2c(c1)C(=O)N(C1CCC(=O)NC1=O)C2=O)C(=O)c1ccc(-n2cc(NC(=O)c3coc(-c4ccncc4)n3)c(C(N)=O)n2)cc1 (stereo not shown) | A (>50% degradation)
O=C1CCC(N2C(=O)c3cccc(NCCNCCCCCNC(=O)c4ccc(-n5cc(NC(=O)c6coc(-c7ccnc(NC8CC8)c7)n6)c(C(F)F)n5)cc4)c3C2=O)C(=O)N1 (stereo not shown) | A (>50% degradation)
O=C1CCC(N2C(=O)c3ccc(OCc4cn(CCOCCOCCNCc5ccc(-n6cc(NC(=O)c7coc(-c8ccnc(NCC9CC9)c8)n7)c(C(F)F)n6)cc5)nn4)cc3C2=O)C(=O)N1 (stereo not shown) | A (>50% degradation)
O=C1CCC(N2C(=O)c3ccc(CCCNC(=O)c4ccc(-n5cc(NC(=O)c6coc(-c7ccncc7)n6)c(C(F)F)n5)cc4)cc3C2=O)C(=O)N1 (stereo not shown) | C (<20% degradation)
CN(CCCc1cccc2c1C(=O)N(C1CCC(=O)NC1=O)C2=O)Cc1ccc(-n2cc(NC(=O)c3coc(-c4ccnc(NCC(F)(F)F)c4)n3)c(C(F)F)n2)cc1 (stereo not shown) | C (<20% degradation)
CN(CCOCCOCCCc1cccc2c1C(=O)N(C1CCC(=O)NC1=O)C2=O)C(=O)c1ccc(-n2cc(NC(=O)c3coc(-c4ccncc4)n3)c(C(N)=O)n2)cc1 (stereo not shown) | A (>50% degradation)
Cn1c(=O)n(C2CCC(=O)NC2=O)c2cccc(CCCOCCOCCNCc3ccc(-n4cc(NC(=O)c5coc(-c6ccnc(NCC7CC7)c6)n5)c(C(F)F)n4)cc3)c21 (stereo not shown) | A (>50% degradation)
Cn1cc(-c2nc(C(=O)Nc3cn(-c4ccc(CNCCOCCOCCNc5cccc6c5C(=O)N(C5CCC(=O)NC5=O)C6=O)cc4)nc3C(F)F)co2)cn1 (stereo not shown) | C (<20% degradation)
O=C1CCC(N2C(=O)c3ccc(NCCOCCOCCNCc4ccc(-n5cc(NC(=O)c6coc(-c7ccnc(NCC8CC8)c7)n6)c(C(F)F)n5)cc4)cc3C2=O)C(=O)N1 (stereo not shown) | A (>50% degradation)
NC(=O)c1nn(-c2ccc(CNCCCc3cccc4c3C(=O)N(C3CCC(=O)NC3=O)C4=O)cc2)cc1NC(=O)c1coc(-c2ccncc2)n1 (stereo not shown) | C (<20% degradation)
O=C1CCC(N2C(=O)c3cccc(NC4CCN(CCOCCOCCOCCNCc5ccc(-n6cc(NC(=O)c7coc(-c8ccnc(NCC9CC9)c8)n7)c(C(F)F)n6)cc5)CC4)c3C2=O)C(=O)N1 (stereo not shown) | A (>50% degradation)
Cn1c(=O)n(C2CCC(=O)NC2=O)c2ccc(CCCOCCOCCNCc3ccc(-n4cc(NC(=O)c5coc(-c6ccnc(NCC(F)(F)F)c6)n5)c(C(N)=O)n4)cc3)cc21 (stereo not shown) | A (>50% degradation)
Cn1c(=O)n(C2CCC(=O)NC2=O)c2cccc(CCCOCCOCCNCc3ccc(-n4cc(NC(=O)c5coc(-c6ccnc(NCC(F)(F)F)c6)n5)c(C(N)=O)n4)cc3)c21 (stereo not shown) | A (>50% degradation)

====

protocol text: Pharmacokinetics in CD-1 mice (plasma concentrations, PK parameters)
Format: in vivo
test context: CD-1, mouse, plasma, iv, 2 mg/kg, mouse (CD1) iv 2 mg/kg; 5 min; Mean; read-out: Concentration
reported endpoint: concentration at 5 min (ng/mL)

NC(=O)c1nn(-c2ccc(C(=O)NCCCCCNCCNc3cccc4c3C(=O)N(C3CCC(=O)NC3=O)C4=O)cc2)cc1NC(=O)c1coc(-c2ccnc(NCC(F)(F)F)c2)n1 (centres unmarked) | 3420
O=C1CCC(N2C(=O)c3cccc(NCCOCCOCCNCc4ccc(-n5cc(NC(=O)c6coc(-c7ccnc(NCC8CC8)c7)n6)c(C(F)F)n5)cc4)c3C2=O)C(=O)N1 (centres unmarked) | 589

====

protocol text: Pharmacokinetics in CD-1 mice (plasma concentrations, PK parameters)
Format: in vivo
test context: mouse (CD1) sc 30 mg/kg; Mean
reported endpoint: AUClast/D

O=C1CCC(N2C(=O)c3cccc(NCCOCCOCCNCc4ccc(-n5cc(NC(=O)c6coc(-c7ccnc(NCC8CC8)c7)n6)c(C(F)F)n5)cc4)c3C2=O)C(=O)N1 (centres unmarked) | 33.9 h·ng/mL per mg/kg
NC(=O)c1nn(-c2ccc(C(=O)NCCCCCNCCNc3cccc4c3C(=O)N(C3CCC(=O)NC3=O)C4=O)cc2)cc1NC(=O)c1coc(-c2ccnc(NCC(F)(F)F)c2)n1 (centres unmarked) | 15.9 h·ng/mL per mg/kg
